Target: Hepatocyte growth factor receptor (Homo sapiens) (UniProt P08581)
Sequence (P08581 whole entry): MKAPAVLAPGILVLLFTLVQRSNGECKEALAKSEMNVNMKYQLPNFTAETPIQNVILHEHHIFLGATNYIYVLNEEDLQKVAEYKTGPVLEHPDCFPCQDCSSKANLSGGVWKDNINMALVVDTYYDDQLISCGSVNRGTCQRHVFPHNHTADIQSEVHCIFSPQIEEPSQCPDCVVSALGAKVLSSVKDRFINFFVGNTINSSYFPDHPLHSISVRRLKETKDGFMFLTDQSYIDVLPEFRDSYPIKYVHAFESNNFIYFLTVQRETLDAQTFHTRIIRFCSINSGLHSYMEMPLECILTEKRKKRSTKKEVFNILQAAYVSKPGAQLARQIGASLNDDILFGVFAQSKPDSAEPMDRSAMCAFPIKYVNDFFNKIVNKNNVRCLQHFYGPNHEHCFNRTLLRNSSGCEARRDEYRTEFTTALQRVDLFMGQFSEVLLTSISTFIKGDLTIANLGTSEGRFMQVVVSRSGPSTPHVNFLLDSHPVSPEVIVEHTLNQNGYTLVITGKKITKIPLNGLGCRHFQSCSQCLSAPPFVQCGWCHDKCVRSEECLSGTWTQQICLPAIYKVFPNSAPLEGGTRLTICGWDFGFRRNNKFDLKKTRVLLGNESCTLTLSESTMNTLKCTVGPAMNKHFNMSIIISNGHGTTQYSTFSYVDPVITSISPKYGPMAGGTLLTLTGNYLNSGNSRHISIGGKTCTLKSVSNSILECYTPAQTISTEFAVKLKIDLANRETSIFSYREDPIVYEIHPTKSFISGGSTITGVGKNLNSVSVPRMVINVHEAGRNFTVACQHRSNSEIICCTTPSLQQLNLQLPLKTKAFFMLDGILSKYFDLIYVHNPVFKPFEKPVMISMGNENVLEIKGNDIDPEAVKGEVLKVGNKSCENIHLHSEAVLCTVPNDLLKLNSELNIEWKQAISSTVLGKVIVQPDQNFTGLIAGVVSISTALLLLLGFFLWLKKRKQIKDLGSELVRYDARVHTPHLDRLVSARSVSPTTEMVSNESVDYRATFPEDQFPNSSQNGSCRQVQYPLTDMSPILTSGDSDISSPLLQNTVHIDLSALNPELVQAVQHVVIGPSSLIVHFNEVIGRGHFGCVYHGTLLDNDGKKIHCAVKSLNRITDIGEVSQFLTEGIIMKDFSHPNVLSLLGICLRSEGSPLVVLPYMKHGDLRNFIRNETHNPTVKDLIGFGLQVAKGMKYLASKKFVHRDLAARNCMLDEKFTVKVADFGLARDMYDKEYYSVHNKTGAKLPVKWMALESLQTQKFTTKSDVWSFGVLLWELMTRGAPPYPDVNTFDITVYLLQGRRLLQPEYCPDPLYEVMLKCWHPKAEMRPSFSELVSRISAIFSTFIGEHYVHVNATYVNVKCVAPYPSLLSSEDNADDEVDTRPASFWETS
Settings: at 10 µM
measured endpoint: residual activity

{"smi": "Nc1n[nH]c2nnc(-c3c(-c4ccccc4)nn4ccccc34)cc12", "result": "88%"}
{"smi": "COc1ccc(CNc2nc(N(CCO)CCO)nc3c2ncn3C(C)C)cc1", "result": "85%"}
{"smi": "CC(C)n1cnc2c(NCc3ccccc3)nc(NCCCO)nc21", "result": "79%"}
{"smi": "Oc1ccc(Nc2nc(-c3ccc(Cl)cc3)cs2)cc1", "result": "110%"}
{"smi": "O=C1NC(=O)c2cc(Nc3ccc(F)cc3)c(Nc3ccc(F)cc3)cc21", "result": "59%"}
{"smi": "CC(=O)O/N=C1\\C(=C2\\C(=O)Nc3cc(Br)ccc32)Nc2ccccc21", "result": "81%"}
{"smi": "O=C1Nc2cc(Br)ccc2/C1=C1/Nc2ccccc2/C1=N\\O", "result": "97%"}
{"smi": "COc1ccc(OC)c2c(=S)c3ccccc3[nH]c12", "result": "119%"}
{"smi": "COc1cc2ncnc(Nc3ccc(O)c(Br)c3)c2cc1OC", "result": "72%"}
{"smi": "Ic1cccc(CSc2nnc(-c3ccncc3)o2)c1", "result": "100%"}
{"smi": "c1ccc(-c2n[nH]c3c2oc2ccccc23)cc1", "result": "70%"}
{"smi": "NC(=O)c1ccc2[nH]c(-c3ccc(Oc4ccc(Cl)cc4)cc3)nc2c1", "result": "101%"}
{"smi": "O=C1c2ccccc2-[n+]2ccc3c([nH]c4ccccc43)c21", "result": "86%"}
{"smi": "Cc1cc2ncc(-c3ccccc3)nc2cc1C", "result": "134%"}
{"smi": "Nc1nc(Nc2ccc(S(N)(=O)=O)cc2)nn1C(=S)Nc1c(F)cccc1F", "result": "0%"}
{"smi": "N#C/C(=C(\\N)Sc1ccc(N)cc1)c1ccccc1C(F)(F)F", "result": "90%"}
{"smi": "O=C1NC(=O)/C(=C/c2ccc3c(c2)OC(F)(F)O3)S1", "result": "78%"}
